Test system: KM12 colon
Test: NCI tumour cell line growth inhibition, 48 h
readoutType: TGI

compound: O=C(Nc1ccc2[nH]c3c(-c4ccccc4)nccc3c2c1)c1ccccc1[N+](=O)[O-]
measuredOn: KM12 colon
TGI: > 100 µM
//
compound: O=S(=O)(O)c1cc(N=Nc2cccc3ccccc23)c(O)c2ncccc12
measuredOn: KM12 colon
TGI: > 100 µM
//
compound: CCCCCCCCCCCCCCCCCCOP1(=O)OCCO1
measuredOn: KM12 colon
TGI: > 100 µM
//
compound: S=c1nc2sc3c(c2c(Nc2ccccc2)[nH]1)CCCC3
measuredOn: KM12 colon
TGI: > 100 µM
//
compound: CCN(CC)CCCNc1[nH]ncc2cc3c(nc4ccc(OC)cc43)c(C)c12
measuredOn: KM12 colon
TGI: 15.7 µM

Q: For the record C=C1c2nc3ccccc3n2C=C(c2ccc(OC)cc2)N1c1ccccc1 , what value of TGI is listed for KM12 colon?
A: > 47.2 µM

Q: For the record O=C1OC(c2ccccc2)=N/C1=C\c1ccc(Cl)cc1 , what value of TGI is listed for KM12 colon?
A: > 100 µM

Q: For the record NC1CCCCC1N.O=C([O-])c1cc(S(=O)(=O)Nc2cc(S(=O)(=O)[O-])cc3cc(S(=O)(=O)[O-])cc(O)c23)ccc1[O-].[Pt+4] , what value of TGI is listed for KM12 colon?
A: > 100 µM

Q: For the record COC1=CC(=O)[C@]2(C)[C@H](C1=O)C(C)[C@H]2c1ccc(OC)cc1 (some centres undefined) , what value of TGI is listed for KM12 colon?
A: > 100 µM

* * *

Test system: BT-549 breast
Experiment: NCI tumour cell line growth inhibition, 48 h
readoutType: TGI (µM)
Give the quantity in µM, number only.

Some molecules with known TGI results, for comparison:
smilesData: Oc1c(I)cc(I)cc1CNCCN(Cc1ccccn1)Cc1ccccn1
TGI (µM): 2.52

smilesData: CCCc1cn2c(/C=N/N=C(N)N)c(-c3c(OC)ccc(OC)c3[N+](=O)[O-])nc2s1
TGI (µM): 35.6

smilesData: O=C1Nc2ccccc2/C1=C\c1c[nH]c2ccc(Br)cc12
TGI (µM): 19.5

Could you now look at the following molecule, please?
Q: Request the reported TGI associated with COc1cc2c(/C=C3\C(=O)N(C)c4ccc(O)cc43)c[nH]c2cc1C
A: 5.44

* * *

System: TK-10 renal
Assay: NCI tumour cell line growth inhibition, 48 h
Reported TGI values for the following compounds.
Give the quantity in µM, number only.

smilesData: Cc1ccc(S(=O)(=O)Nn2c(S)c(C#N)c(-c3ccc(N(C)C)cc3)c(C#N)c2=O)cc1
TGI [µM]: 76.2

Could you now look at the following compound, please?
Q: Request the reported TGI associated with Cc1cc(Nc2nc(-c3ccc(F)cc3)nc3ccccc23)n[nH]1
A: 33.4

* * *

System: T-47D breast
Experiment: NCI tumour cell line growth inhibition, 48 h
Reported TGI values for the following compounds.

Some compounds with known TGI results, for comparison:
smilesData: Oc1c(I)cc(I)cc1CNCCN(Cc1ccccn1)Cc1ccccn1
readoutType: TGI
result: 2.83 µM

smilesData: c1ccc(Cc2cc(-c3ccccc3)n[nH]2)cc1
readoutType: TGI
result: > 100 µM

Q: Request the reported TGI associated with COc1ccc2c(C)cc(C)nc2n1
A: > 100 µM
